# Experimental Target: T1, human calcium-sensing receptor (CaSR) (human, UniProt P41180 20-1078)
# T1 sequence (looked up): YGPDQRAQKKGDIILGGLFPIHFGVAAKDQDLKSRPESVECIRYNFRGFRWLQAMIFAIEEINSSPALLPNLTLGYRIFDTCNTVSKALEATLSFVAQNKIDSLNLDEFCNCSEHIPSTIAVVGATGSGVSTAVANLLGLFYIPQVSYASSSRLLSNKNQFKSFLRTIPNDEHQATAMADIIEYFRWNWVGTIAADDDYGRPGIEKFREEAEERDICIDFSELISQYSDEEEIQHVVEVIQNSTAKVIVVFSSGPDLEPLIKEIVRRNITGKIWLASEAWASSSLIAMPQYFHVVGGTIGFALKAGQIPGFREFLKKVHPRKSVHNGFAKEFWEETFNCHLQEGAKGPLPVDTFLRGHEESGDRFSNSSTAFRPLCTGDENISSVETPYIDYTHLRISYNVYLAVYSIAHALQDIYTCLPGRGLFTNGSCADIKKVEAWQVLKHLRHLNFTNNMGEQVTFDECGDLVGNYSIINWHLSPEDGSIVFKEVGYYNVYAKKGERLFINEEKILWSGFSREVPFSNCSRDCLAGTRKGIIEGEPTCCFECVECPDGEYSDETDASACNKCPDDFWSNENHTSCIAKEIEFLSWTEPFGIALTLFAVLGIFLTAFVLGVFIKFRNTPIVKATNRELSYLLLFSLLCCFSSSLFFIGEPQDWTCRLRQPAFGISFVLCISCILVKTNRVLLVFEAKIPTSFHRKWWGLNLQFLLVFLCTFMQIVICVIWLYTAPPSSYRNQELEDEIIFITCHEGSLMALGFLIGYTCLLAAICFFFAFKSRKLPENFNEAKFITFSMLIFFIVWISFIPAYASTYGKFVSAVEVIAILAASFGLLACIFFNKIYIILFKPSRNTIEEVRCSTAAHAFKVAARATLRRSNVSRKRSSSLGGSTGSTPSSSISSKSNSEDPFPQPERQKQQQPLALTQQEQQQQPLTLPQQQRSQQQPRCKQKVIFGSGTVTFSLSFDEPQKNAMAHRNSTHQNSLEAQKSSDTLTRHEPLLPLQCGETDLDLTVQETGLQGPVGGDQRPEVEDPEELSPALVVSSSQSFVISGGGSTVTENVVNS
# Protocol: cell-based or functional assay
Reported values of EC50 (IP1 production in HEK293 cells that express the human CaSR) for individual entries
Number only, in µM; omit the unit.

Reference set (5 entries):
XXXXXXX (no N-terminal cap; C-terminal amide; all D-residues; L-Cys (C) attached to the side chain of D-Cys 1) [c(C)arrrar-NH2 (SEQ ID NO: 60)]: 3.1
XXXXXXX (N-terminal acetyl; C-terminal amide; all D-residues; acetyl attached to the side chain of D-Cys 1) [Ac-c(acetyl)rrrrrr-NH2 (SEQ ID NO: 82)]: 4.1
Ac-CYGRKKRRQRRR-NH2 [Ac-CYGRKKRRQRRR-NH2 (SEQ ID NO: 47)]: 4.5
XXXXXXX (N-terminal acetyl; C-terminal amide; all D-residues; mercaptopropionic acid (Mpa) attached to the side chain of D-Cys 1) [Ac-c(Mpa)arrrar-NH2 (SEQ ID NO: 56)]: 21
XXXXXXX (N-terminal acetyl; C-terminal amide; all D-residues; L-Cys carrying a 5 kDa polyethylene glycol (PEG5-C) attached to the side chain of D-Cys 1) [Ac-c(PEG5-C)rrrrrr-NH2 (SEQ ID NO: 58)]: 0.58

Exam item: Tell me EC50 (IP1 production in HEK293 cells that express the human CaSR) reported for XXXXXXX (no N-terminal cap; C-terminal amide; all D-residues) [crrrrrr-NH2 (SEQ ID NO: 80)]
Marked response: 1.1

Exam item: Tell me measured EC50 (IP1 production in HEK293 cells that express the human CaSR) for XXXXXXX (N-terminal acetyl; C-terminal amide; all D-residues; benzoyl attached to the side chain of D-Cys 1) [Ac-c(Benzoyl)rrrrrr-NH2 (SEQ ID NO: 81)] please.
Marked response: 3.6

Exam item: Provide measured EC50 (IP1 production in HEK293 cells that express the human CaSR) value, entry: XXXXXXX (N-terminal acetyl; C-terminal amide; all D-residues; N-acetylated L-Cys (Ac-C) attached to the side chain of D-Cys 1) [Ac-c(Ac-C)arrrar-NH2 (SEQ ID NO: 55)]
Marked response: 21
